Recorded values, source patent US11371056B2.

System: Pseudomonas fluorescens HPPD polypeptide (wild-type and mutants)
Assay: Coupled HPPD activity assay: turnover and residual turnover in crude HPPD polypeptide extracts with and without Cmpd. 1
Assay type: biochemical
Conditions: presence of 100 μM Cmpd. 1; changes in absorbance (OD) at 320 nm in the coupled assay, 30 min
Below, each of the molecules is paired with its reported Residual turnover value.
Give a plain numeric answer without units written out.

SEQ ID NO:6 (protein, mutant HPPD polypeptide) MADLYENPMGLMGFEFIEFASPTPGTLEPIFEIMGFTKVATHRSKNVHLYRQGEINLILNNEPNSIASYFAAEHGPSVCGMAFRVKDSQKAYNRALELGAQPIHIDTGPMELNLPAIKGIGGAPLYLIDRFGEGSSIYDIDFVYLEGVERNPVGAGLKVIDHLTHNVYRGRMVYWANFYEKLFNFREARYFDIKGEYTGLTSKAMSAPDGMIRIPLNEESSKGAGQIEEFLMQFNGEGIQHVAFLTDDLVKTWDALKKIGMRFMTAPGDEYYEMLEGRLPDHGEPVDQLQARGILLDGSSVEGDKRLLLQIFSETLMGPVFFEFIQRKGDDGFGPDSFKVLFESIERDQVRRGVLTAD :: 0.052

# next molecule below
Prompt: # lookup: Residual turnover of SEQ ID NO:58 (protein, mutant HPPD polypeptide) MADLYENPMGLMGFEFIEFASPTPGTLEPIFEIMGFTKVATHRSKNVHLYRQGEINLILNNEPNSIASYFAAEHGPSVCGMAFRVKDSQKAYNRALELGAQPIHIDTGPMELNLPAIKGIGGAPLYLIDRFGEGSSIYDIDFVYLEGVERNPVGAGLKVIDHLTHNVYRGRMVYWANFYEKLFNFREARYFDIKGEYTGLTSKAMSAPDGMIKIPLNEESSKGAGQIEEFLMQFNGEGIQHVAFLTDDLVKTWDALKKIGMRFLTAPGDEYYEMLEGRLPDHGEPVDQLQARGILLDGSSVEGDKRLLLQIFSEQLMGPVFFEFIQRKGDDGFGPHSFKVLFEQMERDQVRRGVLTAD
Response: 0.276
